Molecular target: Kir1.1 (ROMK1) (Homo sapiens (Human), UniProt P48048)
Sequence (P48048 whole entry, species assumed): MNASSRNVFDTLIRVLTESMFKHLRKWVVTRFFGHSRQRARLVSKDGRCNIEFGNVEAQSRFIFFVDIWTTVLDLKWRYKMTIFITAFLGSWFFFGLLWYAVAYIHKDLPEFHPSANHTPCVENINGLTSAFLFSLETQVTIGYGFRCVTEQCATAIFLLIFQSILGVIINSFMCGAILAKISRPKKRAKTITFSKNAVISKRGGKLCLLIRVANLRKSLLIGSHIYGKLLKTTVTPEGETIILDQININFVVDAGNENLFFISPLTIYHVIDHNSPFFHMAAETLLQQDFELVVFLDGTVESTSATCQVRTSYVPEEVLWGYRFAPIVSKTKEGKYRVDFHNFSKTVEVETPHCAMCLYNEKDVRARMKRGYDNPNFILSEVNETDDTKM
Assay: Electrophysiology Assay (whole cell voltage clamp, IonWorks Quattro)
Assay type: cell-based
Conditions: Chinese hamster ovary cells stably expressing Kir1.1; block during voltage step to 0 mV; read-out: Electrophysiology IC50
pIC50: −log10 of the molar value. Structures can show the parent of a compound that is named as a salt.

{"columns": ["Compound", "Tested On", "pIC50"],
 "data": [
  ["COc1cc(CCN2CCN3C[C@H](c4ccc5c(c4C)COC5=O)OC[C@H]3C2)ccc1C#N", "Kir1.1 (ROMK1) (Homo sapiens (Human), UniProt P48048)", 6.92],
  ["COc1c([C@@H]2CN3CCN(C[C@H](O)c4ccc5c(c4C)COC5=O)C[C@@H]3CO2)ccc(C#N)c1F", "Kir1.1 (ROMK1) (Homo sapiens (Human), UniProt P48048)", 6.74],
  ["COc1cc(CCN2CCN3C[C@@H](c4ccc5c(c4C)COC5=O)OC[C@@H]3C2)ccc1C#N", "Kir1.1 (ROMK1) (Homo sapiens (Human), UniProt P48048)", 7.15],
  ["COc1cc(F)c(CCN2CCN3C[C@@H](c4ccc5c(c4C)COC5=O)OC[C@@H]3C2)cc1C#N", "Kir1.1 (ROMK1) (Homo sapiens (Human), UniProt P48048)", 7.30],
  ["COc1cc(C(O)CN2CCN3C[C@@H](c4ccc5c(c4)COC5=O)OC[C@@H]3C2)c(Cl)cc1C#N (stereo partly shown) [Example 10, trifluoroacetate]", "Kir1.1 (ROMK1) (Homo sapiens (Human), UniProt P48048)", 6.89],
  ["Cc1c([C@H]2CN3CCN(CC(O)c4ccc(-n5cnnn5)nc4)C[C@H]3CO2)ccc(F)c1C#N (single isomer, unassigned) [Example 18]", "Kir1.1 (ROMK1) (Homo sapiens (Human), UniProt P48048)", 7.00],
  ["Cc1c([C@@H]2CN3CCN(CCc4ccc5c(c4)COC5=O)C[C@H]3CN2)ccc(F)c1C#N", "Kir1.1 (ROMK1) (Homo sapiens (Human), UniProt P48048)", 7.22],
  ["Cc1c(CCN2CCN3C[C@H](c4ccc5c(c4C)COC5=O)OC[C@H]3C2)ccc2c1COC2=O", "Kir1.1 (ROMK1) (Homo sapiens (Human), UniProt P48048)", 7.15],
  ["Cc1c([C@@H]2CN3CCN(CCc4ccc5c(c4C)COC5=O)C[C@@H]3CO2)ccc(F)c1C#N", "Kir1.1 (ROMK1) (Homo sapiens (Human), UniProt P48048)", 7.15],
  ["Cc1cc2c(cc1C(O)CN1CCN3C[C@@H](c4ccc5c(c4C)COC5=O)OC[C@@H]3C1)COC2=O (single isomer, unassigned) [Example 42]", "Kir1.1 (ROMK1) (Homo sapiens (Human), UniProt P48048)", 7.10],
  ["Cc1c([C@@H]2CN3CCN(CC(O)c4cc(F)c(C#N)c(F)c4)C[C@H]3CO2)ccc2c1COC2=O (stereo partly shown) [Example 38]", "Kir1.1 (ROMK1) (Homo sapiens (Human), UniProt P48048)", 6.92],
  ["Cc1c(CCN2CCN3C[C@@H](c4ccc(F)c(C#N)c4)OC[C@@H]3C2)ccc2c1COC2=O", "Kir1.1 (ROMK1) (Homo sapiens (Human), UniProt P48048)", 6.80],
  ["Cc1c([C@H](O)CN2CCN3C[C@@H](c4ccc5c(c4C)COC5=O)OC[C@@H]3C2)ccc2c1COC2=O", "Kir1.1 (ROMK1) (Homo sapiens (Human), UniProt P48048)", 7.10],
  ["Cc1c([C@@H]2CN3CCN(CCc4ccc(-n5cnnn5)nc4)C[C@H]3CO2)ccc(F)c1C#N", "Kir1.1 (ROMK1) (Homo sapiens (Human), UniProt P48048)", 7.10],
  ["Cc1c([C@H]2CN3CCN(C[C@H](O)c4ccc5c(c4)COC5=O)C[C@@H]3CN2)ccc(F)c1C#N", "Kir1.1 (ROMK1) (Homo sapiens (Human), UniProt P48048)", 7.00],
  ["O=C1OCc2cc(CCN3CCN4C[C@H](c5ccc6c(c5)COC6=O)OC[C@@H]4C3)ccc21", "Kir1.1 (ROMK1) (Homo sapiens (Human), UniProt P48048)", 7.40]
]}

----------
// reported IC50 per item
Molecular target: Kir1.1 (ROMK1) (Homo sapiens (Human), UniProt P48048)
Test: Electrophysiology Assay (whole cell voltage clamp, IonWorks Quattro)
Format: cell-based
Conditions: Chinese hamster ovary cells stably expressing Kir1.1; block during voltage step to 0 mV; read-out: Electrophysiology IC50
Outcome Measure: IC50 (µM)

{"columns": ["Smiles Repr", "Endpoint Result"],
 "data": [
  ["COc1cc(CCN2CCN3C[C@H](c4ccc5c(c4C)COC5=O)OC[C@@H]3C2)ccc1C#N", 0.18],
  ["Cc1c([C@@H](O)CN2CCN3C[C@@H](c4cc(F)c(C#N)c(F)c4)OC[C@@H]3C2)ccc2c1COC2=O", 0.1],
  ["COc1c(C#N)ccc(CCN2CCN3C[C@@H](c4ccc5c(c4C)COC5=O)OC[C@@H]3C2)c1C", 0.08],
  ["COc1cc([C@H]2CN3CCN(C[C@H](O)c4ccc5c(c4C)COC5=O)C[C@@H]3CO2)cc(F)c1C#N", 0.08]
]}

----------
# pIC50 per entry
Target: Kir1.1 (ROMK1) (Homo sapiens (Human), UniProt P48048)
Experiment: Electrophysiology Assay (whole cell voltage clamp, IonWorks Quattro)
Assay type: cell-based
Conditions: Chinese hamster ovary cells stably expressing Kir1.1; block during voltage step to 0 mV; read-out: Electrophysiology IC50
pIC50: −log10 of the molar value.

{"columns": ["Molecule", "pIC50"],
 "data": [
  ["Cc1c([C@H]2CN3CCN(CCc4ccc5c(c4)COC5=O)C[C@H]3CO2)ccc2c1COC2=O", 6.96],
  ["CCOc1cc(CCN2CCN3C[C@@H](c4ccc5c(c4C)COC5=O)OC[C@@H]3C2)ccc1C#N", 7.05],
  ["Cc1c([C@H]2CN3CCN(CC(O)c4ccc(-n5cnnn5)nc4)C[C@H]3CO2)ccc(F)c1C#N (single isomer, unassigned) [Example 17]", 6.82],
  ["Cc1c([C@@H]2CN3CCN(CCc4ccc5c(c4)C[C@H](C)OC5=O)C[C@H]3CO2)ccc2c1COC2=O", 7.10],
  ["Cc1cc2c(cc1C(O)CN1CCN3C[C@@H](c4ccc5c(c4C)COC5=O)OC[C@@H]3C1)COC2=O (single isomer, unassigned) [Example 43]", 6.89],
  ["COc1cc(C(O)CN2CCN3C[C@@H](c4ccc5c(c4C)COC5=O)OC[C@@H]3C2)c(F)cc1C#N (single isomer, unassigned) [Example 37]", 6.96],
  ["Cc1c([C@@H](O)CN2CCN3C[C@@H](c4ccc(C#N)c(F)c4)OC[C@H]3C2)ccc2c1COC2=O", 7.10],
  ["COc1c(CCN2CCN3C[C@H](c4ccc5c(c4C)COC5=O)OC[C@H]3C2)ccc(C#N)c1F", 6.85]
]}

----------
Biological target: Kir1.1 (ROMK1) (Homo sapiens (Human))
Assay: Electrophysiology Assay (whole cell voltage clamp, IonWorks Quattro)
Format: cell-based
Details: Chinese hamster ovary cells stably expressing Kir1.1; block during voltage step to 0 mV; read-out: Electrophysiology IC50
# key: entry, value: IC50

{"columns": ["Compound", "Units", "IC50"],
 "data": [
  ["Cc1c(CCN2CCN3C[C@H](c4ccc5c(c4Cl)COC5=O)OC[C@@H]3C2)ccc2c1COC2=O [Example 89]", "nM", 100],
  ["Cc1c([C@@H]2CN3CCN(CCc4cc(F)c(C#N)c(F)c4)C[C@H]3CO2)ccc2c1COC2=O [Example 98]", "nM", 90],
  ["COc1cc(C(O)CN2CCN3C[C@@H](c4ccc5c(c4C)COC5=O)OC[C@@H]3C2)c(F)cc1C#N (some centres unmarked) [Example 15]", "nM", 290],
  ["Cc1c([C@@H](O)CN2CCN3C[C@@H](c4ccc5c(c4)COC5=O)OC[C@@H]3C2)ccc2c1COC2=O [Example 11]", "nM", 60],
  ["COc1c(CCN2CCN3C[C@H](c4ccc5c(c4C)COC5=O)OC[C@@H]3C2)ccc(C#N)c1F [Example 96]", "nM", 80],
  ["Cc1c([C@@H]2CN3CCN(CC(O)c4ccc5c(c4)C[C@H](C)OC5=O)C[C@H]3CO2)ccc2c1COC2=O (single isomer, unassigned) [Example 44]", "nM", 130],
  ["COc1cc([C@H]2CN3CCN(CC(O)c4cc(OC)c(C#N)cc4F)C[C@@H]3CO2)ccc1C#N (some centres unmarked) [Example 14]", "nM", 270],
  ["COc1cc([C@H]2CN3CCN(CCc4ccc5c(c4C)COC5=O)C[C@H]3CO2)ccc1C#N [Example 74]", "nM", 80]
]}
